- targetUnderTest: T1, IRF4 DBD T95A (Homo sapiens, UniProt Q15306 20-132, T95A)
- T1 sequence: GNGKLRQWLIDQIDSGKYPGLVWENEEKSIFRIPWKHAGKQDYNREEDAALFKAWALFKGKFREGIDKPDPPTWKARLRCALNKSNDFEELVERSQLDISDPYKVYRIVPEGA
- assay: FP; FP: PBS + 0.05% Tween20, 5 nM DNA, 1 h, room temperature; SPR: Biacore S200, SA chip, protein 0.1-4500 nM, running buffer not given in material; errors are SD
- conditionDescription: protein: recombinant; tags: N-terminal His8-linker-His8-TEV, cleaved; label: 3' fluorescein (FAM); hairpin, TTTT loop

| binder | Kd [nM] |
| --- | --- |
| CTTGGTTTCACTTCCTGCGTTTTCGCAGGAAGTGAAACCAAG (structured_DNA) [IRE hairpin (FAM)] | 105 |
